Molecular target: CD94/NKG2A (Homo sapiens, UniProt P26715+Q13241)
Sequence (P26715 94-233 limits assumed): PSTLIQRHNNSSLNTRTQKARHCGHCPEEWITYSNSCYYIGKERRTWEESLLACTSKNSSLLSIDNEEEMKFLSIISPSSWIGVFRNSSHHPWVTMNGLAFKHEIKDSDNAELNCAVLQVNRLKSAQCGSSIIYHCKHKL
Sequence (Q13241 32-179 limits assumed): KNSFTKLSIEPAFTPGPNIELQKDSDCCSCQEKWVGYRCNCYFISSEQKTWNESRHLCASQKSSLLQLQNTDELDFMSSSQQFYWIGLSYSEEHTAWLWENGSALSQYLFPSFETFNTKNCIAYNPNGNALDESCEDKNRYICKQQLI
Experiment: Steady-state surface plasmon resonance of peptide-HLA-E complex with CD94/NKG2A
Assay type: binding
Conditions: CD94/NKG2A concentration 0 μM
Where no end group is shown, it is not given here.
So I've got a bunch of sequences here, and I need their binding of peptide-HLA-E complex to CD94/NKG2A normalized to a fitted Rmax values.
Answers are plain numbers.

See these solved cases before continuing.
[[record]]
chain = "VNPGRSLFL [human5, VNPGRSLFL]"
target_system = "CD94/NKG2A (Homo sapiens, UniProt P26715+Q13241)"
measured_result = "−0.002"

[[record]]
chain = "TLPKRGLFL [human2, TLPKRGLFL]"
target_system = "CD94/NKG2A (Homo sapiens, UniProt P26715+Q13241)"
measured_result = "−0.007"

[[record]]
chain = "TAPARTMFL [human13, TAPARTMFL]"
target_system = "CD94/NKG2A (Homo sapiens, UniProt P26715+Q13241)"
measured_result = 0.010

[[record]]
chain = "TGPWRSLWI [human3, TGPWRSLWI]"
target_system = "CD94/NKG2A (Homo sapiens, UniProt P26715+Q13241)"
measured_result = 0.013


Entry QMPSRSLLF [human1, QMPSRSLLF] ; binding of peptide-HLA-E complex to CD94/NKG2A normalized to a fitted Rmax = −0.006

====

Molecular target: CD94/NKG2A (Homo sapiens, UniProt P26715+Q13241)
Experiment: Steady-state surface plasmon resonance of peptide-HLA-E complex with CD94/NKG2A
Assay type: binding
Conditions: steady-state SPR; CD94/NKG2A analyte concentration 51.200 μM
Where no end group is shown, it is not given here.
Answer each item with its documented Binding of peptide-HLA-E complexes to CD94/NKG2A normalized to a theoretical Rmax.
Numbers only.

[[record]]
chain = "TAPARTMFL [human13, TAPARTMFL]"
measured_result = 0.524

[[record]]
chain = "VNPGRSLFL [human5, VNPGRSLFL]"
measured_result = 0.451

[[record]]
chain = "QMPSRSLLF [human1, QMPSRSLLF]"
measured_result = 0.686


Go through the list and state Binding of peptide-HLA-E complexes to CD94/NKG2A normalized to a theoretical Rmax for each entry.
1. TGPWRSLWI [human3, TGPWRSLWI]
2. TLPKRGLFL [human2, TLPKRGLFL]

Solution:
[0.194, 0.709]

====

Target: CD94/NKG2C (Homo sapiens, UniProt P26717+Q13241)
Sequence (P26717 94-231 limits assumed): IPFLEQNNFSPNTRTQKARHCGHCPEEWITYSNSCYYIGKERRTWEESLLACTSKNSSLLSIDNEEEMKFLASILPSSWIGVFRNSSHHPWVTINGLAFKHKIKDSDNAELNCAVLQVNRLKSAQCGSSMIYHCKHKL
Sequence (Q13241 32-179 limits assumed): as the sequence (Q13241 32-179 limits assumed) above
Assay: Steady-state surface plasmon resonance of peptide-HLA-E complex with CD94/NKG2C
Format: binding
Conditions: steady-state SPR; CD94/NKG2C analyte concentration 0.2 μM
Where no end group is shown, it is not given here.
QUANTITY_NAME: Binding of peptide-HLA-E complexes to CD94/NKG2C normalized to a theoretical Rmax
One number for each entry.

Here's what some known entries look like.
[[record]]
chain = "VNPGRSLFL [human5, VNPGRSLFL]"
measured_result = 0.044

[[record]]
chain = "TAPARTMFL [human13, TAPARTMFL]"
measured_result = 0.017

[[record]]
chain = "TLPKRGLFL [human2, TLPKRGLFL]"
measured_result = 0.007

[[record]]
chain = "TGPWRSLWI [human3, TGPWRSLWI]"
measured_result = 0.003


--- query ---
The sequence listed as QMPSRSLLF [human1, QMPSRSLLF] has a reported Binding of peptide-HLA-E complexes to CD94/NKG2C normalized to a theoretical Rmax of 0.010
